Biological target: UniProt P35372
Experiment: Agonist activity against mu opioid receptor expressed in CHO cells assessed as stimulation of [35S]-GTPgammaS binding relative to DAMGO
Assay type: functional, cell-based
PARAMETER: Emax (%)
Give bare numbers, in %.

Known Emax results, listed for orientation:
CHEMICAL SMILES: O=C(CNC(=O)c1ccncc1)N[C@@H]1CC[C@@]2(O)[C@H]3Cc4ccc(O)c5c4[C@@]2(CCN3CC2CC2)[C@H]1O5
Emax / %: 22.6
//
CHEMICAL SMILES: CN1CCC(C(=O)N[C@@H]2CC[C@@]3(O)[C@H]4Cc5ccc(O)c6c5[C@@]3(CCN4CC3CC3)[C@H]2O6)CC1
Emax / %: 37.2
//
CHEMICAL SMILES: O=C(N[C@@H]1CC[C@@]2(O)[C@H]3Cc4ccc(O)c5c4[C@@]2(CCN3CC2CC2)[C@H]1O5)c1ccncc1Cl
Emax / %: 24.9
//
CHEMICAL SMILES: O=C(N[C@@H]1CC[C@@]2(O)[C@H]3Cc4ccc(O)c5c4[C@@]2(CCN3CC2CC2)[C@H]1O5)c1ccnc(Cl)c1
Emax / %: 58.2
//
CHEMICAL SMILES: O=C(N[C@@H]1CC[C@@]2(O)[C@H]3Cc4ccc(O)c5c4[C@@]2(CCN3CC2CC2)[C@H]1O5)c1ccnc(Br)c1
Emax / %: 50.8
//
CHEMICAL SMILES: O=C(CCc1ccncc1)N[C@@H]1CC[C@@]2(O)[C@H]3Cc4ccc(O)c5c4[C@@]2(CCN3CC2CC2)[C@H]1O5
Emax / %: 22.6

State its Emax: O=C(N[C@@H]1CC[C@@]2(O)[C@H]3Cc4ccc(O)c5c4[C@@]2(CCN3CC2CC2)[C@H]1O5)c1ccncc1Br
23.2

----------
Molecular target: Delta-type opioid receptor (Homo sapiens, UniProt P41143)
Sequence (P41143 whole entry): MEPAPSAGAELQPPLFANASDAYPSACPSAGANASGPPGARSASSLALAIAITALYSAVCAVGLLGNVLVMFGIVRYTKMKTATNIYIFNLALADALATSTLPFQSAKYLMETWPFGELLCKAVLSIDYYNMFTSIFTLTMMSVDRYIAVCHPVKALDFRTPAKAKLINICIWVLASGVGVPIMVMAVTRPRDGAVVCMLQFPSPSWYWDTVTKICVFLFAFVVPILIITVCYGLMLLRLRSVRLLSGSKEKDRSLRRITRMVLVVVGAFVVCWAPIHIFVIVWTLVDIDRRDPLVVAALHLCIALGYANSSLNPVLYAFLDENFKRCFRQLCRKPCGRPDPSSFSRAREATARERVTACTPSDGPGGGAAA
Experiment: Displacement of [3H]-NTI from delta opioid receptor expressed in CHO cells after 1 hr
Give log10(Ki) for every item shown.
// units: µM (pre-log); metric: Ki; scale: log10

I have 3 compounds here; please give me log10(Ki) for each one.
1. O=C(N[C@@H]1CC[C@@]2(O)[C@H]3Cc4ccc(O)c5c4[C@@]2(CCN3CC2CC2)[C@H]1O5)c1ccnc(Cl)c1
2. CN1CCC(C(=O)N[C@@H]2CC[C@@]3(O)[C@H]4Cc5ccc(O)c6c5[C@@]3(CCN4CC3CC3)[C@H]2O6)CC1
3. O=C(CNC(=O)c1ccncc1)N[C@@H]1CC[C@@]2(O)[C@H]3Cc4ccc(O)c5c4[C@@]2(CCN3CC2CC2)[C@H]1O5

[-0.22, 0.41, -0.28]

----------
Biological target: Mu-type opioid receptor (Homo sapiens)
Sequence (P35372 whole entry): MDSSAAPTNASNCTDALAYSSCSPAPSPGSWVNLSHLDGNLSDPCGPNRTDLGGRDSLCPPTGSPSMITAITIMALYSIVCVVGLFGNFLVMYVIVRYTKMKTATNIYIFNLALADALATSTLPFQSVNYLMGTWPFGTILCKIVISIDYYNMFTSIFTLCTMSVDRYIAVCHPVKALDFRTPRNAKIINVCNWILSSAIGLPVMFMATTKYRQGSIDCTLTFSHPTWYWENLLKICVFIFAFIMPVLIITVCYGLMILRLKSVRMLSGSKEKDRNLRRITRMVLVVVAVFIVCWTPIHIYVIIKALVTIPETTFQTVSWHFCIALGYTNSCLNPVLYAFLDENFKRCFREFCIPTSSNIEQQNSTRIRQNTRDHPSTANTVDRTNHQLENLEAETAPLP
Test: Agonist activity against mu opioid receptor expressed in CHO cells assessed as stimulation of [35S]-GTPgammaS binding
Give pEC50 for every item shown.
Give bare numbers, as −log10 of the molar value.

CHEMICAL SMILES: Cc1cc(C(=O)N[C@@H]2CC[C@@]3(O)[C@H]4Cc5ccc(O)c6c5[C@@]3(CCN4CC3CC3)[C@H]2O6)ccn1
NUMERIC VALUE: 8.95
//
CHEMICAL SMILES: O=C(N[C@@H]1CC[C@@]2(O)[C@H]3Cc4ccc(O)c5c4[C@@]2(CCN3CC2CC2)[C@H]1O5)c1ccncc1Br
NUMERIC VALUE: 8.88

Okay, now this compound:
State its pEC50: O=C(CNC(=O)c1ccncc1)N[C@@H]1CC[C@@]2(O)[C@H]3Cc4ccc(O)c5c4[C@@]2(CCN3CC2CC2)[C@H]1O5
8.55
